So I've got a bunch of compounds here, and I need their inhibition values.
ASSAY TARGET: Patatin-like phospholipase domain-containing protein 2 (Mus musculus)
EXPERIMENTAL DETAILS: Inhibition of murine ATGL expressed in COS-7 cells at 200 uM relative to control
Format: cell-based
Numbers only, in %.

| CPD SMILES | ASSAY TARGET | inhibition (%) |
| --- | --- | --- |
| CCOc1ccc(-c2cccc(NC(C)=O)c2)cc1 | Patatin-like phospholipase domain-containing protein 2 (Mus musculus) | 52 |
| CCOC(=O)c1cccc(-c2cccs2)c1 | Patatin-like phospholipase domain-containing protein 2 (Mus musculus) | 55 |
| CCOC(=O)c1cccc(-c2ccc(CN3CCCCC3)cc2)c1 | Patatin-like phospholipase domain-containing protein 2 (Mus musculus) | 68 |
| CCOC(=O)c1cccc(-c2ccc(CN3CCCC3)cc2)c1 | Patatin-like phospholipase domain-containing protein 2 (Mus musculus) | 33 |

Prompt: Determine from records and report inhibition for `CCOc1ccc(-c2cccc(C(=O)Oc3ccc([N+](=O)[O-])cc3)c2)cc1`
Completion: 56

---

ASSAY TARGET: Patatin-like phospholipase domain-containing protein 2 (Mus musculus) (UniProt Q8BJ56)
Sequence (Q8BJ56 whole entry, the tested form may be a part): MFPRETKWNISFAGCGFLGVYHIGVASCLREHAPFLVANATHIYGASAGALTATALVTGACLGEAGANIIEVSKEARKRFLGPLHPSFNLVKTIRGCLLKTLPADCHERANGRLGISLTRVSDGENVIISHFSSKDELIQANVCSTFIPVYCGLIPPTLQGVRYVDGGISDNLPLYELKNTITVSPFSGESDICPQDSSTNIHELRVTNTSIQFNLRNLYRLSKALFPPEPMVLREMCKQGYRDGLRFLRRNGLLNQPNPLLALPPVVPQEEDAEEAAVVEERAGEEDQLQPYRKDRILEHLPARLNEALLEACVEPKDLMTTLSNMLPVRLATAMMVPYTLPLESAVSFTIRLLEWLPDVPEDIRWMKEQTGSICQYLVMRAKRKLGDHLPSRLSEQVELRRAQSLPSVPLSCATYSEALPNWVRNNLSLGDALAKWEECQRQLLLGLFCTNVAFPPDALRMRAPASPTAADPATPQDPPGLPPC
EXPERIMENTAL DETAILS: Inhibition of recombinant murine ATGL expressed in Escherichia coli XL-1 lysates at 200 uM relative to control
Assay type: subcellular
RECORDED METRIC: inhibition (%)
One number for each entry, in %.

Please review the following examples before continuing.
| COMPOUND | RECORDED METRIC | OBS VALUE |
| --- | --- | --- |
| CCOC(=O)c1cccc(-c2ccc(C(C)N3CCN(C)CC3)cc2)c1 (stereo not given) | inhibition | 30 |
| CCOC(=O)c1cccc(-c2ccc(C(C)=O)cc2)c1 | inhibition | 17 |
| CCOC(=O)c1cccc(-c2ccc(C(C)N(C)C)cc2)c1 (stereo not given) | inhibition | 9 |

Would you mind listing inhibition for each of the following compounds?
1. CCOC(=O)c1cccc(-c2ccc(CN3CCN(S(C)(=O)=O)CC3)cc2)c1
2. CCOC(=O)c1cccc(-c2ccc(C(=O)CN(C)C)cc2)c1

Completion:
1. 68
2. 4

Would you mind listing inhibition for each of the following compounds?
1. CCOc1ccc(-c2cccc(NC(=O)N(C)C)c2)cc1
2. CCOC(=O)c1cccc(-c2ccc(Br)cc2)c1
3. CN(C)C(=O)Nc1cccc(-c2ccc(N(C)C)cc2)c1
4. CCOC(=O)c1cccc(-c2ccc(CN3CCN(C)CC3)cc2)c1
5. CCOC(=O)c1cn(-c2ccc(OCC)cc2)nn1

Completion:
1: 83; 2: 34; 3: 99; 4: 32; 5: 43

---

ASSAY TARGET: Patatin-like phospholipase domain-containing protein 2 (Mus musculus)
EXPERIMENTAL DETAILS: Inhibition of murine ATGL expressed in COS-7 cells at 200 uM relative to control
Type: cell-based
RECORDED METRIC: inhibition (%)
Numbers only, in %.

Please review the following examples before continuing.
| MOLECULE | DISPLAY UNIT | inhibition |
| --- | --- | --- |
| CCOC(=O)c1cccc(-c2ccc(OCC)cc2)c1 | % | 87 |
| CCOC(=O)c1ccc(-c2ccc(OCC)cc2)s1 | % | 81 |
| CN(C)C(=O)N(C)c1cccc(-c2ccc(N(C)C)cc2)c1 | % | 74 |
| CCOc1ccc(-c2cccc(S(=O)(=O)NC)c2)cc1 | % | 47 |
| CCOC(=O)c1cccc(-c2ccc(CN3CCN(S(C)(=O)=O)CC3)o2)c1 | % | 66 |
| CCOC(=O)N(C)c1cccc(-c2ccc(N(C)C)cc2)c1 | % | 20 |

Would you mind listing inhibition for each of the following molecules?
1. CCOC(=O)c1cccc(-c2ccsc2)c1
2. CCOC(=O)c1cc(-c2ccc(OCC)cc2)ccn1
3. CCOC(=O)c1cccc(-c2ccc(CN(C)C)cc2)c1

Completion:
1: 67; 2: 72; 3: 67

Would you mind listing inhibition for each of the following molecules?
1. CCOC(=O)c1ccc(-c2ccc(OCC)cc2)o1
2. CC(C)COC(=O)Nc1cccc(-c2ccc(N(C)C)cc2)c1
3. CCOC(=O)c1cccc(-c2ccc3[nH]ccc3c2)c1
4. CCOC(=O)c1cccc(-c2ccccc2)c1
5. CCOc1ccc(-c2cccc(C(=O)N3CCCC3)c2)cc1

Completion:
[93, 90, 80, 52, 53]

Would you mind listing inhibition for each of the following molecules?
1. CCOC(=O)c1cccc(-c2ccc(OCC)nc2)c1
2. CCOc1ccc(-c2cccc(C(=O)O)c2)cc1
3. CCOC(=O)c1cccc(-c2ccc(CN3CCN(S(C)(=O)=O)CC3)cc2)c1
4. CCOC(=O)c1cccc(-c2ccc(O)cc2)c1
5. CCOC(=O)c1cccc(-c2ccc(CN(C)C)o2)c1
6. CCOC(=O)c1cccc(-c2ccc(OCC)c(N)c2)c1
7. CCOC(=O)c1cccc(-c2ccc(N(C)C)cc2)c1

Completion:
1: 68; 2: 23; 3: 68; 4: 77; 5: 53; 6: 59; 7: 87

Would you mind listing inhibition for each of the following molecules?
1. CCOC(=O)c1cccc(-c2ccc(CN3CCN(C)CC3)cc2)c1
2. CCOc1ccc(-c2cccc([N+](=O)[O-])c2)cc1

Completion:
1. 26
2. 35

Would you mind listing inhibition for each of the following molecules?
1. CCOC(=O)c1cccc(-c2ccc(CN3CCN(C)CC3)o2)c1
2. CCOc1ccc(-c2ccccc2)cc1
3. CCOC(=O)c1cccc(-c2ccc(C(C)=O)cc2)c1
4. CN(C)c1ccc(-c2cccc([N+](=O)[O-])c2)cc1
5. CCOC(=O)C1CCCC(c2ccc(OCC)cc2)N1 (stereo unspecified)
6. CCCCOC(=O)c1cccc(-c2ccc(OCC)cc2)c1
7. CN(C)c1ccc(-c2cccc(NC(=O)N3CCOCC3)c2)cc1
8. CCOC(=O)c1cccc(-c2ccc3c(ccn3C)c2)c1

Completion:
67
35
36
21
48
61
31
84

Would you mind listing inhibition for each of the following molecules?
1. CCOC(=O)c1cccc(-c2ccc(C(C)N(C)C)cc2)c1 (stereo unspecified)
2. CCOc1ccc(-c2cccc(S(=O)(=O)N(C)C)c2)cc1
3. CCOC(=O)c1cccc(-c2ccc(C(C)N3CCN(C)CC3)cc2)c1 (stereo unspecified)
4. CCOC(=O)c1ccnc(-c2ccc(OCC)cc2)c1
5. CN(C)C(=O)Nc1cccc(-c2ccc(N(C)C)cc2)c1
6. CCOC(=O)c1cccc(-c2ccc(OCC)c([N+](=O)[O-])c2)c1
7. CCNC(=O)c1cccc(-c2ccc(OCC)cc2)c1

Completion:
[50, 63, 69, 87, 98, 44, 62]

Would you mind listing inhibition for each of the following molecules?
1. CN(C)c1ccc(-c2cccc(NC(=O)C(C)(C)C)c2)cc1
2. CCOC(=O)c1cccc(-c2ccc([N+](=O)[O-])cc2)c1
3. CCCCCCOC(=O)c1cccc(-c2ccc(OCC)cc2)c1
4. CCOC(=O)c1cccc(-c2ccc(OCC)cc2)n1

Completion:
[25, 63, 48, 79]

Would you mind listing inhibition for each of the following molecules?
1. CCOc1ccc(-c2cccc(C(=O)OCCOC)c2)cc1
2. CCOC(=O)c1cccc(-c2ccncc2)c1
3. CCOC(=O)Nc1cccc(-c2ccc(N(C)C)cc2)c1

Completion:
[89, 40, 93]

Values compiled from ChEMBL document CHEMBL4725289.
